- System tested: Thrombin (Homo sapiens (Human))
- Test summary: Thrombin inhibition (Ki)
- Type: biochemical
Reported metric: Thrombin Ki (μM)

Worked examples, 5 compounds total:
Compound: N=C(N)c1ccc(N)cc1
System tested: Thrombin (Homo sapiens (Human))
Reported result: No activity
--
Compound: Nc1nc2ccccc2[nH]1
System tested: Thrombin (Homo sapiens (Human))
Reported result: No activity
--
Compound: O=C(Oc1ccc([N+](=O)[O-])cc1)c1ccc(Br)o1
System tested: Thrombin (Homo sapiens (Human))
Reported result: No Activity
--
Compound: O=C(O)c1ccc2c(c1)C1C=CCC1C(C(=O)O)N2 (stereo not shown)
System tested: Thrombin (Homo sapiens (Human))
Reported result: No activity
--
Compound: O=c1oc(-c2ccco2)nc2cc(Cl)ccc12
System tested: Thrombin (Homo sapiens (Human))
Reported result: No Activity

Query string: I would be grateful if you could share the reported Thrombin Ki (μM) for COc1cccc2c1NC(C(=O)O)C1CC=CC21 (stereo not shown) .
Result string: No activity

Query string: Item CC(=O)c1ccc(OC(=O)c2ccco2)cc1 has what recorded Thrombin Ki (μM)?
Result string: No activity

* * *

- System tested: MASP-2 (Homo sapiens (Human), UniProt O00187)
- Sequence (O00187 16-686): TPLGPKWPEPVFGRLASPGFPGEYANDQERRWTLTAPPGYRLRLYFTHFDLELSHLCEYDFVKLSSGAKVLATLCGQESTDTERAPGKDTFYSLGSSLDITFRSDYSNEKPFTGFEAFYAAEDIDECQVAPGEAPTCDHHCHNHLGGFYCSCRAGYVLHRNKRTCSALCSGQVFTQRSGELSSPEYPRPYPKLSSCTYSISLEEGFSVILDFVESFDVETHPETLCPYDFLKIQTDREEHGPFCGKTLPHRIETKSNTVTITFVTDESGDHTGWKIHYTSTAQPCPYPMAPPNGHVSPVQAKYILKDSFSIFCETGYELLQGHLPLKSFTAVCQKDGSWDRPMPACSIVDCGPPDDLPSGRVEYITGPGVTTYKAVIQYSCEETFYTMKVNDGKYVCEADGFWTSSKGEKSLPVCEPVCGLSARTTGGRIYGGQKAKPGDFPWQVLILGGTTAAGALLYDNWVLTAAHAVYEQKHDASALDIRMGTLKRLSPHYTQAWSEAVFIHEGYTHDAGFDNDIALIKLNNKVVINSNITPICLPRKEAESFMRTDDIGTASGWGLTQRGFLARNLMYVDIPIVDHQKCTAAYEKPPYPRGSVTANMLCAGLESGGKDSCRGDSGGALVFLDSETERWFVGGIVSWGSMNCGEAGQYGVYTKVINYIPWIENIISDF
- Test summary: MASP-2 inhibition (Ki)
- Assay type: biochemical
pKi: −log10 of the molar value.
Reported metric: pKi

Example entries and their recorded answers appear below.
Compound: O=C1NC(=S)NC(=O)C1=C/C=C/c1ccco1
pKi: > 5.00
//
Compound: O=C(O)C1Nc2c(O)cc(Cl)c([N+](=O)[O-])c2C2C=CCC12 (stereo not shown)
pKi: 4.60 to 5.00
//
Compound: COC(=O)c1cn(C(=O)c2cc(OC)cc(OC)c2)nc1N
pKi: > 5.00
//
Compound: N#Cc1ccc(OC(=O)c2ccc(Br)o2)cc1
pKi: > 5.00

Query string: What reported pKi corresponds to O=C(O)c1ccc2c(c1)C1C=CCC1C(C(=O)O)N2 (stereo not shown) on MASP-2 (Homo sapiens (Human), UniProt O00187)?
Result string: 4.00 to 4.60

Query string: So what pKi did O=C(NNC(=O)c1cc2ccccc2cc1O)c1ccco1 get with MASP-2 (Homo sapiens (Human), UniProt O00187)?
Result string: > 5.00

Query string: Hi! What's the reported pKi for COc1ccc(/C=C2\N=C(c3ccccc3OC)OC2=O)cc1OC on MASP-2 (Homo sapiens (Human), UniProt O00187)?
Result string: 4.00 to 4.60

Query string: Enter reported pKi observed with MASP-2 (Homo sapiens (Human), UniProt O00187) for N=C(N)c1ccc(N)cc1
Result string: 4.00 to 4.60

Query string: Record lookup: for MASP-2 (Homo sapiens (Human), UniProt O00187), what pKi belongs to COc1ccccc1C1=N/C(=C\c2cccs2)C(=O)O1 ?
Result string: 4.60 to 5.00

Query string: Request - read-out pKi | tested on MASP-2 (Homo sapiens (Human), UniProt O00187) | compound Cc1c(/N=C/c2ccc(OC(=O)c3ccco3)cc2)c(=O)n(-c2ccccc2)n1C
Result string: > 5.00

* * *

- System tested: human α-thrombin (Homo sapiens (Human), UniProt P00734)
- Test summary: Enzymatic assay for thrombin (Boc-VPR-AMC substrate)
- Type: biochemical
- Protocol conditions: +Zn; read-out: Thrombin Ki
Where a name gives a salt, the structure may show the parent alone.
As shown below, each of these molecules has a reported Ki value.

Molecule: N=C(N)c1ccc2[nH]c(-c3ccccn3)nc2c1 [compound 2001, Dihydrochloride]
System tested: human α-thrombin (Homo sapiens (Human), UniProt P00734)
Reported result: < 2500 nM

Molecule: CCc1ccc(-c2nc3cc(C(=N)N)ccc3[nH]2)nc1 [compound 2007, dihydrochloride]
System tested: human α-thrombin (Homo sapiens (Human), UniProt P00734)
Reported result: < 2500 nM

Molecule: Cc1cccc(-c2nc3cc(C(=N)N)ccc3[nH]2)n1
System tested: human α-thrombin (Homo sapiens (Human), UniProt P00734)
Reported result: < 2500 nM

Molecule: Cc1ccnc(-c2nc3cc(C(=N)N)ccc3[nH]2)c1 [compound 2005, dihydrochloride]
System tested: human α-thrombin (Homo sapiens (Human), UniProt P00734)
Reported result: < 50 nM

Molecule: CCOc1ccnc(-c2nc3cc(C(=N)N)ccc3[nH]2)c1 [compound 2012, dihydrochloride]
System tested: human α-thrombin (Homo sapiens (Human), UniProt P00734)
Reported result: < 500 nM

Query string: Reported Ki, molecule N=C(N)c1ccc2[nH]c(-c3c[nH]cn3)nc2c1 [compound 2000, dihydrochloride] : ____
Result string: < 10000 nM

Query string: // returns reported Ki for input N=C(N)c1ccc2[nH]c(-c3ccc4ccccc4n3)nc2c1 [compound 2013, dihydrochloride]
Result string: < 10000 nM

Query string: # query: Ki of entry Cc1cccnc1-c1nc2cc(C(=N)N)ccc2[nH]1 [compound 2004, dihydrochloride]
Result string: < 500 nM

* * *

- System tested: MASP-2 (CCP1-CCP2-SP) (Homo sapiens (Human))
- Sequence (O00187 445-686): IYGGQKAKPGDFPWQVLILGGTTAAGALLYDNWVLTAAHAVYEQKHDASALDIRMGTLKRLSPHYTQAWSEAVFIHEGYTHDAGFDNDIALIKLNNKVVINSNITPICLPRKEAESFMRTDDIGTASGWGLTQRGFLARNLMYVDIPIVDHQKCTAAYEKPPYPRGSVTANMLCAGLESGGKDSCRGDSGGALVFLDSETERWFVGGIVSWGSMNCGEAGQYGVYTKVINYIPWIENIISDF
- Test summary: biochemical
- Format: biochemical
- Protocol conditions: read-out: MASP-2 Ki
pKi: −log10 of the molar value. Structures can show the parent of a compound that is named as a salt.
Reported metric: pKi

Look over these answered cases.
Compound: C[C@H](NC(=O)[C@H](N)CCc1cccc(F)c1)C(=O)NCc1ccc(C(=N)N)cc1
System tested: MASP-2 (CCP1-CCP2-SP) (Homo sapiens (Human))
pKi: > 6.30

Compound: C[C@H](NC(=O)[C@@H](CCc1ccccc1)NCCc1cccc(O)c1)C(=O)NCc1ccc(C(=N)N)cc1 [compound 1330, Di-trifluoroacetate salt]
System tested: MASP-2 (CCP1-CCP2-SP) (Homo sapiens (Human))
pKi: > 6.30

Compound: Cc1cc(C[C@@H]2CN[C@@H](C(=O)N[C@@H](C)C(=O)NCc3cnc4c(c3)c(Cl)cn4C)C2)ccn1 [compound 1468, Trifluoroacetate]
System tested: MASP-2 (CCP1-CCP2-SP) (Homo sapiens (Human))
pKi: > 6.30

Compound: Cc1ccc(-c2c[nH]c(C(=O)N[C@@H](C)C(=O)NCc3ccc(C(=N)N)cc3)c2)cc1F
System tested: MASP-2 (CCP1-CCP2-SP) (Homo sapiens (Human))
pKi: > 6.30

Compound: Cc1nc(N)ccc1CNC(=O)[C@H](C)NC(=O)[C@H]1C[C@H](Cc2ccc3nsnc3c2)CN1 [compound 1449, Di-trifluoroacetate salt]
System tested: MASP-2 (CCP1-CCP2-SP) (Homo sapiens (Human))
pKi: > 6.30

Query string: // fetch MASP-2 (CCP1-CCP2-SP) (Homo sapiens (Human)) pKi for CCCCCCOC(=O)NC(=N)c1ccc(CNC(=O)[C@H](C)NC(=O)[C@H]2C[C@H](c3ccccc3)CN2)cc1
Result string: 5.00 to 5.60

* * *

- System tested: UniProt O00187
- Test summary: biochemical
- Format: biochemical
- Protocol conditions: selectivity for MASP-2 inhibition versus thrombin
Structures can show the parent of a compound that is named as a salt.
Reported metric: MASP-2 vs. thrombin selectivity

Example results:
Compound: C[C@H](NC(=O)[C@@H](CCc1ccccc1)NCc1ccc2cc(O)ccc2c1)C(=O)NCc1ccc(C(=N)N)cc1 [compound 1256]
System tested: UniProt O00187
MASP-2 vs. thrombin selectivity: * (≥1.0 to <5.0-fold)
--
Compound: Cc1cccc([C@H]2CN[C@@H](C(=O)N[C@@H](C)C(=O)NCc3ccc(C(=N)N)cc3)C2)c1 [compound 1247]
System tested: UniProt O00187
MASP-2 vs. thrombin selectivity: *** (≥25 to <100-fold)
--
Compound: C[C@H](NC(=O)[C@H]1C[C@H](Cc2ccc(-c3ccc(F)cc3C(N)=O)cc2)CN1)C(=O)NCc1cc(Cl)ccc1-n1cnnn1 [compound 1405, Hydrochloride]
System tested: UniProt O00187
MASP-2 vs. thrombin selectivity: ** (≥5.0 to <25-fold)
--
Compound: Cc1nc(N)ccc1CNC(=O)[C@H](C)NC(=O)[C@H]1C[C@H](Cc2ccc(Br)cc2)CN1 [compound 1350, Dihydrochloride]
System tested: UniProt O00187
MASP-2 vs. thrombin selectivity: **** (≥100-fold)
--
Compound: C[C@H](NC(=O)[C@H]1C[C@H](Cc2ccccc2Br)CN1)C(=O)NCc1cnc2c(c1)c(Cl)cn2C [compound 1482, Hydrochloride]
System tested: UniProt O00187
MASP-2 vs. thrombin selectivity: *** (≥25 to <100-fold)

Query string: // query MASP-2 vs. thrombin selectivity value for entry C[C@H](NC(=O)[C@H]1C[C@H](c2ccccc2)CN1)C(=O)NCc1ccc(C(=N)N)nc1 [compound 1272]
Result string: *** (≥25 to <100-fold)

Query string: I have this compound here, Cc1ccccc1CN1CCN[C@@H](C(=O)N[C@@H](C)C(=O)NCc2ccc(N)nc2C)C1 [compound 1348, Dihydrochloride] , and I need its recorded MASP-2 vs. thrombin selectivity.
Result string: *** (≥25 to <100-fold)

Query string: Record request: MASP-2 vs. thrombin selectivity value, item Cc1nc(N)ccc1CNC(=O)[C@H](C)NC(=O)[C@H]1C[C@H](Cc2ccc(N3CCCC3=O)cc2)CN1 [compound 1391, Di-trifluoroacetate salt]
Result string: **** (≥100-fold)

Query string: # lookup: MASP-2 vs. thrombin selectivity of CC(C)COC(=O)NC(=N)c1ccc(CNC(=O)[C@H](C)NC(=O)[C@H]2C[C@H](c3ccccc3)CN2)cc1 [compound 1293]
Result string: * (≥1.0 to <5.0-fold)

Query string: MASP-2 vs. thrombin selectivity for Cc1ccc([C@@H]2CCN[C@@H](C(=O)N[C@@H](C)C(=O)NCc3ccc(C(=N)N)cc3)C2)cc1 [compound 1248] ?
Result string: ** (≥5.0 to <25-fold)

Query string: Report MASP-2 vs. thrombin selectivity for C[C@H](NC(=O)[C@H]1C[C@H](Cc2ccc(F)c(Cl)c2)CN1)C(=O)NCc1cnc2c(c1)c(Cl)cn2C [compound 1474, Trifluoroacetate salt] please.
Result string: **** (≥100-fold)

Origin of values: patent US11584714B2
